Hello, the source for this data is patent US20220281821A1, in case you need it.

target: BaF3-ETV6-NTRK2 (Homo sapiens); construct: fused on or other part: P41212 (Transcription factor ETV6); assay: Cell proliferation inhibition (CCK-8), BaF3-ETV6-NTRK2 stable strain; details: BaF3-ETV6-NTRK2, 72 hours
Sequence (Q16620 538-822 limits assumed): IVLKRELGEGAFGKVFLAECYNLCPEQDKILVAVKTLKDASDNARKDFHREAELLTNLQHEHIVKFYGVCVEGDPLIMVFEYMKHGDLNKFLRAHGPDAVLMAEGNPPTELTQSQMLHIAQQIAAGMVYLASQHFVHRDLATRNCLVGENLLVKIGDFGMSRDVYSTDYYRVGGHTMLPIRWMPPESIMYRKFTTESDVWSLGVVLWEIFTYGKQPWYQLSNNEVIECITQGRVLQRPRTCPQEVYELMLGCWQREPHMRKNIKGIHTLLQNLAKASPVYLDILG
# IC50 per record follows
Entry rule: numbers only, all in nM.

Here is how some compounds turned out for IC50.
O=C(Nc1cc(F)cc(F)c1)Nc1ccc2[nH]nc(/C=C/c3ccccn3)c2c1; 1910
Fc1cc(F)cc(Cc2ccc3[nH]nc(/C=C/c4cccnc4)c3c2)c1; 157
Fc1ccccc1CNc1ccc2[nH]nc(/C=C/c3ccccn3)c2c1; 376
C[C@@H](Nc1ccc2[nH]nc(/C=C/c3cnn(C)c3)c2c1)c1cc(F)cc(F)c1; 9.5
CN(C)C(=O)Cn1cc(/C=C/c2n[nH]c3ccc(NS(=O)(=O)c4cc(F)cc(F)c4)cc23)cn1; 439
Fc1cccc(F)c1Cc1ccc2[nH]nc(C#Cc3ccccn3)c2c1; 2890
O=C(/C=C/c1n[nH]c2ccc(NCc3cc(F)cc(F)c3)cc12)N1CC[C@@H](O)C1; 56
CN(C)C(=O)/C=C/c1n[nH]c2ccc(NCc3cc(F)cc(F)c3)cc12; 31.7

Exam item: Please report the recorded IC50 for "Fc1cc(F)cc(Cc2ccc3[nH]nc(/C=C/c4cccs4)c3c2)c1" .
Marked response: 728

Exam item: Please report the recorded IC50 for "O=C(/C=C/c1n[nH]c2ccc(NCc3cc(F)cc(F)c3)cc12)N1CC[C@H](O)C1" .
Marked response: 20.5

Exam item: Please report the recorded IC50 for "C[C@@H](Nc1ccc2[nH]nc(/C=C/c3cnn(CCO)c3)c2c1)c1cc(F)cc(F)c1" .
Marked response: 17.6

----------
molecular target: BaF3-ETV6-NTRK3 (Homo sapiens, UniProt Q16288); construct: fused on or other part: P41212 (Transcription factor ETV6); assay: Cell proliferation inhibition (CCK-8), BaF3-ETV6-NTRK3 stable strain; assay type: cell-based, mouse; settings: BaF3-ETV6-NTRK3, 72 hours
Sequence (Q16288 whole entry, the tested form may be a part): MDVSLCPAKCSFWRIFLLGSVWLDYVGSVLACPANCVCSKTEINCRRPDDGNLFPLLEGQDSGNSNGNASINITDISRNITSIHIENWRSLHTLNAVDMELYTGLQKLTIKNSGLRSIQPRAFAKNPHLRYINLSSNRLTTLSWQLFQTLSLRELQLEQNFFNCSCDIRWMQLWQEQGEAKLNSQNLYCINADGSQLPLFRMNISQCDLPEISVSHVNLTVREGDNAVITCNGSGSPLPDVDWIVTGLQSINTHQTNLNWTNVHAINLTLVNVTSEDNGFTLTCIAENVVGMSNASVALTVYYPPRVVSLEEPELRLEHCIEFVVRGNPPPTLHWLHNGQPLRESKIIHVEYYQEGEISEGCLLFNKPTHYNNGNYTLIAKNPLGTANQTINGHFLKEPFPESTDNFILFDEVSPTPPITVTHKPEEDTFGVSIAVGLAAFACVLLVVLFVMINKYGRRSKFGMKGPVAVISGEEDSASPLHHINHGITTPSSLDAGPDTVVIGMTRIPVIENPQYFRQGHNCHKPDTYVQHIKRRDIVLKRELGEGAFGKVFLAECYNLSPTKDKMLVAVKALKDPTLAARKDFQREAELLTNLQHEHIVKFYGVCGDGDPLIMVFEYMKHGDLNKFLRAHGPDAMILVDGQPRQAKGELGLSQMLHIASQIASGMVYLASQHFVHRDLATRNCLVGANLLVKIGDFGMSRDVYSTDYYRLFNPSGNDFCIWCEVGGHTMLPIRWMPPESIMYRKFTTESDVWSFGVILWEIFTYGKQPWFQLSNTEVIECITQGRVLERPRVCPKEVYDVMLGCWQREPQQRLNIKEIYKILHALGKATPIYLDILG
Parameter class (string): assigned from measured IC50. Ranges: low class: < 100 nM; middle class: ≥ 100 nM and < 900 nM; high class: ≥ 900 nM

Record excerpt, results attached:
C[C@@H](Nc1ccc2[nH]nc(/C=C/c3cnn(C)c3)c2c1)c1cc(F)cc(F)c1; low class
O=C(Nc1cc(F)cc(F)c1)Nc1ccc2[nH]nc(/C=C/c3ccccn3)c2c1; middle class
CN(C)C(=O)Cn1cc(/C=C/c2n[nH]c3ccc(NS(=O)(=O)c4cc(F)cc(F)c4)cc23)cn1; middle class

Let's switch to this molecule now.
Exam item: For "Clc1cc(Cl)cc(Cc2ccc3[nH]nc(/C=C/c4ccccn4)c3c2)c1" , which IC50 bin applies?
Marked response: middle class

----------
# IC50 per record follows
target: BaF3-CD74-NTRK1 (Homo sapiens); construct: fused on or other part: P04233 (HLA class II histocompatibility antigen gamma chain); test: Cell proliferation inhibition (CCK-8), BaF3-CD74-NTRK1 stable strain; conditions: BaF3-CD74-NTRK1, 72 hours
Sequence (P04629 510-796 limits assumed): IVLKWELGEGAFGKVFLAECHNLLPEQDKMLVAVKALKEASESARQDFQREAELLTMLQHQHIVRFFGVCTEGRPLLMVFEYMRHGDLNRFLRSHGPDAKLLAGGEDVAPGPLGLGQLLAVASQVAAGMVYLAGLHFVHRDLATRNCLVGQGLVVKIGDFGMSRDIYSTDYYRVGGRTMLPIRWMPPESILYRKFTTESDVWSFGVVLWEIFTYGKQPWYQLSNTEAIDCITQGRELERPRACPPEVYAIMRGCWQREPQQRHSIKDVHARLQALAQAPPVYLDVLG
Entry rule: numbers only, all in nM.

Fc1cccc(CNc2ccc3[nH]nc(/C=C/c4ccccn4)c3c2)c1; 28.2
Fc1cc(F)cc(Cc2ccc3[nH]nc(/C=C/c4cnccn4)c3c2)c1; 580

Exam item: Please report the recorded IC50 for "C[C@@H](Nc1ccc2[nH]nc(/C=C/c3ccccn3)c2n1)c1cc(F)cc(F)c1" .
Marked response: 9.9

Exam item: Please report the recorded IC50 for "O=C(Nc1cc(F)cc(F)c1)c1ccc2[nH]nc(/C=C/c3ccccn3)c2c1" .
Marked response: 8040

Exam item: Please report the recorded IC50 for "Fc1cc(F)cc(Cc2ccc3[nH]nc(/C=C/c4ccc5ccccc5n4)c3c2)c1" .
Marked response: 640

Exam item: Please report the recorded IC50 for "C[C@@H](Nc1ccc2[nH]nc(/C=C/C(=O)N3CC[C@H](O)C3)c2c1)c1cc(F)cc(F)c1" .
Marked response: 10.1

Exam item: Please report the recorded IC50 for "C[C@@H](Nc1cnc2[nH]nc(/C=C/c3ccccn3)c2c1)c1cc(F)cc(F)c1" .
Marked response: 9.6
